So I've got a bunch of compounds here, and I need their pIC50 values.
system.under.test: recombinant human FAK1 (Homo sapiens, UniProt Q05397)
Construct: fused on or other part: N-terminal 6xHis tag
Sequence (Q05397 422-680 limits assumed): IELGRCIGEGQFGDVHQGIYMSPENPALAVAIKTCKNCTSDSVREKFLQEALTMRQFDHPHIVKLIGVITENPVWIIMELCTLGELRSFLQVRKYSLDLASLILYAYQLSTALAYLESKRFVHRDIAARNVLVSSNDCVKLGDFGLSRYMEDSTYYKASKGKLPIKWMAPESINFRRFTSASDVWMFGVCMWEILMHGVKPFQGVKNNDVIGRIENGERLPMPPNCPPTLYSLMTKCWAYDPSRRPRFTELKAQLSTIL
protocol.details: FAK1 HTRF assay
Assay type: biochemical
pIC50: −log10 of the molar value.

Task: Return value of pIC50 for input COc1cc(Nc2ncc3ccn(S(=O)(=O)c4cccc5cccnc45)c3n2)ccc1NC(=O)C1CCC1 [Example 373] , no commentary.
Output: > 7.70

Task: Return value of pIC50 for input Cc1ccc(N(C)S(C)(=O)=O)c(Cn2ccc3cnc(Nc4ccc(N5CCCC(N)C5)cc4)nc32)c1 (centres unmarked) [Example 978] , no commentary.
Output: > 7.70

Task: Return value of pIC50 for input CC(=O)Nc1cccc(Nc2cc3nn(Cc4ccccc4OC(F)F)cc3cn2)c1 [Example 63] , no commentary.
Output: < 6.00

Task: Return value of pIC50 for input O=S(=O)(c1cccc2cccnc12)n1ccc2cnc(Nc3ccc(N4CCNCC4)cc3OC3CCC3)nc21 [Example 358] , no commentary.
Output: < 6.00

Task: Return value of pIC50 for input Cc1cc(Nc2cc3c(ccn3S(=O)(=O)c3ccccc3C#N)cn2)ccc1N1CCNCC1 [Example 390] , no commentary.
Output: > 7.70

Task: Return value of pIC50 for input O=S(=O)(c1ccc(Nc2ncc3ccn(Cc4cccnc4)c3n2)cc1)C(F)F [Example 17] , no commentary.
Output: < 6.00

Task: Return value of pIC50 for input COc1cc(N2CCN(C)CC2)ccc1Nc1cc2c(ccn2S(=O)(=O)c2ccccc2C#N)cn1 [Example 493] , no commentary.
Output: > 7.70

Task: Return value of pIC50 for input Cc1ccc(N(C)S(C)(=O)=O)c(Cn2ccc3cnc(Nc4ccc(N5CCNCC5)c(F)c4)nc32)c1 [Example 941] , no commentary.
Output: > 7.70

====

So I've got a bunch of molecules here, and I need their IC50 values.
system.under.test: Recombinant Src enzyme (Homo sapiens, UniProt P12931)
Sequence (P12931 whole entry): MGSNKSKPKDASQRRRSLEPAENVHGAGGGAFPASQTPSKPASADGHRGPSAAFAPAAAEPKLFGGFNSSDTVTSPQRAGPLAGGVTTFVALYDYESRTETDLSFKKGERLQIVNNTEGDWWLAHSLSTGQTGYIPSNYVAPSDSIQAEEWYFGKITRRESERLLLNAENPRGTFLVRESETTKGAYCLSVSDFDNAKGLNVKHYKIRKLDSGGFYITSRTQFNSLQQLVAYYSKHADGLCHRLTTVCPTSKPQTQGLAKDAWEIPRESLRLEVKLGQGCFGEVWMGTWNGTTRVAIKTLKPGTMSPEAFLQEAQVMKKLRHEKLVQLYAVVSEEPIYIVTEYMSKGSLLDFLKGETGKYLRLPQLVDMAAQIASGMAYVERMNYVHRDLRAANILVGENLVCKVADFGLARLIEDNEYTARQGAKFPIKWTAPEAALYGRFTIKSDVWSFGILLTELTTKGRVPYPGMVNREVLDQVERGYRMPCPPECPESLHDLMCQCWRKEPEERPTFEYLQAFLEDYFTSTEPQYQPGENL
protocol.details: Src HTRF assay

Task: Specify the recorded IC50 for Cc1ccnc2c(S(=O)(=O)n3ccc4cnc(Nc5ccc(N6CCNCC6)cc5)nc43)cccc12 , system: Recombinant Src enzyme (Homo sapiens, UniProt P12931).
Output: > 1000 nM

Task: Specify the recorded IC50 for CN(c1ncccc1Cn1ccc2cnc(Nc3ccc(N4CCN(CCO)CC4)cc3)cc21)S(C)(=O)=O , system: Recombinant Src enzyme (Homo sapiens, UniProt P12931).
Output: > 1000 nM

Task: Specify the recorded IC50 for CC(=O)Nc1ccc(S(=O)(=O)n2ccc3cnc(Nc4ccc5c(c4)CCC(=O)N5)nc32)cc1 , system: Recombinant Src enzyme (Homo sapiens, UniProt P12931).
Output: > 1000 nM

Task: Specify the recorded IC50 for CN(c1ncccc1Cn1cc2cnc(Nc3ccc4c(c3)CCC(=O)N4)nc2n1)S(C)(=O)=O , system: Recombinant Src enzyme (Homo sapiens, UniProt P12931).
Output: > 1000 nM

Task: Specify the recorded IC50 for CN(c1ncccc1Cn1ccc2cnc(Nc3cccc(-c4nnn[nH]4)c3)nc21)S(C)(=O)=O , system: Recombinant Src enzyme (Homo sapiens, UniProt P12931).
Output: > 1000 nM

Task: Specify the recorded IC50 for O=C(Nc1ccc(Nc2cc3c(cn2)cnn3S(=O)(=O)c2cccc3cccnc23)cc1)C1CC1 , system: Recombinant Src enzyme (Homo sapiens, UniProt P12931).
Output: > 1000 nM

Task: Specify the recorded IC50 for O=C1CCc2cc(Nc3cc4c(cn3)cnn4Cc3ccccc3OC(F)F)ccc2N1 , system: Recombinant Src enzyme (Homo sapiens, UniProt P12931).
Output: < 20 nM

Task: Specify the recorded IC50 for CN(c1ncccc1Cn1cc(C(N)=O)c2cnc(Nc3ccc(N4CCNCC4)cc3)nc21)S(C)(=O)=O , system: Recombinant Src enzyme (Homo sapiens, UniProt P12931).
Output: > 1000 nM

Task: Specify the recorded IC50 for Cc1cc(Nc2ncc3ccn(Cc4cccnc4N(C)S(C)(=O)=O)c3n2)ccc1N1CCNCC1 , system: Recombinant Src enzyme (Homo sapiens, UniProt P12931).
Output: < 20 nM

Task: Specify the recorded IC50 for Cn1cc(Nc2cc3c(cn2)cnn3S(=O)(=O)c2cccc3cccnc23)cn1 , system: Recombinant Src enzyme (Homo sapiens, UniProt P12931).
Output: > 1000 nM

Task: Specify the recorded IC50 for CN(c1ccccc1Cn1ccc2cnc(Nc3ccc(N4CCN5CCCC5C4)cc3)nc21)S(C)(=O)=O (stereo not shown) , system: Recombinant Src enzyme (Homo sapiens, UniProt P12931).
Output: < 20 nM

Task: Specify the recorded IC50 for C[C@H]1CN(c2ccc(Nc3ncc4ccn(Cc5cccnc5N(C)S(C)(=O)=O)c4n3)nc2)CCN1 , system: Recombinant Src enzyme (Homo sapiens, UniProt P12931).
Output: > 1000 nM

Task: Specify the recorded IC50 for COc1ccc(Cn2ccc3cnc(Nc4ccc(N5CCN[C@@H](C)C5)cc4)nc32)c(N(C)S(C)(=O)=O)c1 , system: Recombinant Src enzyme (Homo sapiens, UniProt P12931).
Output: > 1000 nM

Task: Specify the recorded IC50 for Cc1cc(Nc2ncc3ccn(S(=O)(=O)c4cccs4)c3n2)ccc1N1CCNCC1 , system: Recombinant Src enzyme (Homo sapiens, UniProt P12931).
Output: < 20 nM

Task: Specify the recorded IC50 for COc1cccc(N(C)S(C)(=O)=O)c1Cn1ccc2cnc(Nc3ccc(N4CCN[C@@H](C)C4)cc3)nc21 , system: Recombinant Src enzyme (Homo sapiens, UniProt P12931).
Output: > 1000 nM

Task: Specify the recorded IC50 for COc1cc(N2CCN(C)CC2)ccc1Nc1cc2c(ccn2S(=O)(=O)c2ccccc2C#N)cn1 , system: Recombinant Src enzyme (Homo sapiens, UniProt P12931).
Output: > 1000 nM

====

system.under.test: recombinant human FAK1 (Homo sapiens, UniProt Q05397)
Construct: fused on or other part: N-terminal 6xHis tag
protocol.details: FAK1 HTRF assay
So I've got a bunch of compounds here, and I need their IC50 values.

Task: Return value of IC50 for input O=C1CCc2cc(Nc3ncc4cnn(S(=O)(=O)c5cccc6cccnc56)c4n3)ccc2N1 [Example 228] , no commentary.
Output: < 20 nM

Task: Return value of IC50 for input Cc1cc(Nc2ncc3cnn(S(=O)(=O)c4cccc5cccnc45)c3n2)ccc1N1CCNCC1 [Example 332] , no commentary.
Output: < 20 nM

Task: Return value of IC50 for input CN(c1ccc(F)cc1Cn1ccc2cnc(Nc3ccc4c(c3)CC(=O)N4)nc21)S(C)(=O)=O [Example 792] , no commentary.
Output: < 20 nM

Task: Return value of IC50 for input O=C1CCc2cc(Nc3cc4c(ccn4S(=O)(=O)c4ccc(OC(F)(F)F)cc4)cn3)ccc2N1 [Example 48] , no commentary.
Output: > 1000 nM

Task: Return value of IC50 for input CN(C)S(=O)(=O)c1ccccc1Cn1ncc2cnc(Nc3ccc4c(c3)CCC(=O)N4)cc21 [Example 204] , no commentary.
Output: < 20 nM

Task: Return value of IC50 for input COc1cc(N2CCC(OC)CC2)ccc1Nc1cc2c(ccn2S(=O)(=O)c2cccc3cccnc23)cn1 [Example 430] , no commentary.
Output: < 20 nM

Task: Return value of IC50 for input O=S(=O)(c1cccc2cccnc12)n1ccc2cnc(Nc3ccc(N4CCNCC4)cc3Cl)nc21 [Example 418] , no commentary.
Output: < 20 nM

Task: Return value of IC50 for input CS(=O)(=O)c1ccc(Nc2cc3c(ccn3S(=O)(=O)c3cccc(OC(F)(F)F)c3)cn2)cc1 [Example 51] , no commentary.
Output: > 1000 nM

====

system.under.test: recombinant human FAK1 (Homo sapiens)
Construct: fused on or other part: N-terminal 6xHis tag
protocol.details: FAK1 HTRF assay
pIC50: −log10 of the molar value.
measured.parameter: pIC50

Task: Return value of pIC50 for input O=S(=O)(c1cccc2cccnc12)n1ncc2cnc(Nc3ccc(N4CCOCC4)cc3)nc21 , no commentary.
Output: > 7.70

Task: Return value of pIC50 for input O=C1CCc2cc(Nc3ncc4cnn(Cc5cccnc5)c4n3)ccc2N1 , no commentary.
Output: < 6.00

Task: Return value of pIC50 for input O=S(=O)(c1cccc2cccnc12)n1ccc2cnc(Nc3ccc(N4CCN(CCO)CC4)cc3)nc21 , no commentary.
Output: > 7.70

Task: Return value of pIC50 for input CC(=O)Nc1ccc(Nc2cc3c(ccn3S(=O)(=O)c3ccc(OC(F)(F)F)cc3)cn2)cc1 , no commentary.
Output: < 6.00

====

So I've got a bunch of compounds here, and I need their pEC50 values.
system.under.test: FAK phosphorylated at Y397 in HEK-FAK cell line overexpressing human FL FAK protein (Homo sapiens, UniProt Q05397)
Construct: expressed in transfected cells
Sequence (Q05397 whole entry): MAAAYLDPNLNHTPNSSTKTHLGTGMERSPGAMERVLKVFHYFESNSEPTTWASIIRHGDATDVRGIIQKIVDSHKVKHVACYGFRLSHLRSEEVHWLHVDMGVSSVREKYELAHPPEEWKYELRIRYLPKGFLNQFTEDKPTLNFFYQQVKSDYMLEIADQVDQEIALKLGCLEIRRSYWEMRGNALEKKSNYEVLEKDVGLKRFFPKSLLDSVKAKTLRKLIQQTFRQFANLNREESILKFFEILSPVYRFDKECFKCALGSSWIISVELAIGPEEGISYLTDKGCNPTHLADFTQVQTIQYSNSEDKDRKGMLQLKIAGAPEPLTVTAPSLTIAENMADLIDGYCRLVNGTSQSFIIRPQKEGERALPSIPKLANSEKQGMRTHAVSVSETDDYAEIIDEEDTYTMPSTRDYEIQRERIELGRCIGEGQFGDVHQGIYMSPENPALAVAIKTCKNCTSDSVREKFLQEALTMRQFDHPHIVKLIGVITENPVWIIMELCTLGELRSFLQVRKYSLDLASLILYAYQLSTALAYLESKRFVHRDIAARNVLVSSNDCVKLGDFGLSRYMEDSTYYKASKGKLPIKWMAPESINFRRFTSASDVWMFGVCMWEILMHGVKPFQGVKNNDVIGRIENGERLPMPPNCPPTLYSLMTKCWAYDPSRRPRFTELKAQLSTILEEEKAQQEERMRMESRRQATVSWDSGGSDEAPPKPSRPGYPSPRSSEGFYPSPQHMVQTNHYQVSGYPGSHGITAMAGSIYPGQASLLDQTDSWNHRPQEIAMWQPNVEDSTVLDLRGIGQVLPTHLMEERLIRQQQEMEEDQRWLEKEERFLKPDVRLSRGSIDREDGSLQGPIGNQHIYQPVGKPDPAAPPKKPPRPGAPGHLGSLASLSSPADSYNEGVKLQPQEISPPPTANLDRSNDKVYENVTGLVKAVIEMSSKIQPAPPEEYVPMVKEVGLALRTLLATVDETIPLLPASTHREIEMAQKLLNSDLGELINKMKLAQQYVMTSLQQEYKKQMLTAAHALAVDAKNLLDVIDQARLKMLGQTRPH
protocol.details: Cell based assay, Phospho-FAK ELISA
condition.details: HEK stb; read-out: pFAK EC50 HEK stb
pEC50: −log10 of the molar value.

Task: Return value of pEC50 for input CNC(=O)c1ccc(Nc2ncc3ccn(Cc4cccnc4N(C)S(C)(=O)=O)c3n2)cc1 , no commentary.
Output: < 6.00

Task: Return value of pEC50 for input Cc1cc(Nc2ncc3ccn(Cc4cccnc4N(C)S(C)(=O)=O)c3n2)ccc1C1CCN(CCO)CC1 , no commentary.
Output: < 6.00

Ref: patent US20160222014A1
